Each recorded value in this set is attributed to patent US6989371B1.

# Test system: PTC (colon)
# ASSAY PROCEDURE: MTT cytotoxicity assay, 72 hours (Example 13)
# Format: cell-based, human
# CONDITION SUMMARY: 100 PM
Non-standard residues stand in square brackets, D forms with d. Residues, ends and D or L forms follow the SMILES beside them. Aib = CC(C)(N)C(=O)O
PARAMETER: Percent Cytotoxicity (%)
Dear colleague, please return just the value in %, with no unit written.

MOLECULE	Percent Cytotoxicity / %
CC[C@H](C)[C@H](NC(=O)[C@H](Cc1c[nH]cn1)NC(=O)CNC(=O)[C@@H](NC(=O)C(C)(C)NC(=O)[C@H](Cc1c[nH]c2ccccc12)NC(=O)[C@H](CCC(N)=O)NC(=O)[C@H](N)Cc1ccccc1)C(C)C)C(N)=O [SEQ ID: 6, D-Phe-Gln-Trp-Aib-Val-Gly-His-Ile-NH2] (H-[dF]QW[Aib]VGHI-NH2; N-terminus assumed)	10.1
CCCC(CCC)(NC(=O)[C@@H](NC(=O)[C@H](C)NC(=O)[C@@H](Cc1c[nH]c2ccccc12)NC(=O)[C@H](CCC(N)=O)NC(=O)[C@H](N)Cc1ccccc1)C(C)C)C(=O)N[C@@H](Cc1c[nH]cn1)C(=O)N[C@@H](CC(C)C)C(N)=O	12.3
CC(C)C[C@H](NC(=O)[C@H](Cc1c[nH]cn1)NC(=O)C(C)(C)NC(=O)[C@@H](NC(=O)[C@H](C)NC(=O)[C@@H](Cc1c[nH]c2ccccc12)NC(=O)[C@H](CCC(N)=O)NC(=O)[C@H](N)Cc1ccccc1)C(C)C)C(N)=O [SEQ ID: 5, D-Phe-Gln-D-Trp-Ala-Val-Aib-His-Leu-NH2] (H-[dF]Q[dW]AV[Aib]HL-NH2; N-terminus assumed)	13.9

Here is the next item to consider.
Look up Percent Cytotoxicity: CC[C@H](C)[C@H](NC(=O)[C@H](Cc1c[nH]cn1)NC(=O)C(C)(C)NC(=O)[C@@H](NC(=O)[C@H](C)NC(=O)[C@H](Cc1c[nH]c2ccccc12)NC(=O)[C@H](CCC(N)=O)NC(=O)[C@H](N)Cc1ccccc1)C(C)C)C(N)=O [SEQ ID: 7, D-Phe-Gln-Trp-Ala-Val-Aib-His-Ile-NH2] (H-[dF]QWAV[Aib]HI-NH2; N-terminus assumed) 8.2
